# assay: Viability assay (cytotoxicity, MTT)
# Assay type: cell-based
# condition.description: human, HeLa-P4 cells, read-out: Cytoto -xicity IC50
value.type: IC50 at 2 days (µM)
All answers are understood in µM, so give the number only.

Lab note: measured IC50 at 2 days of CC(=O)c1ccc2ccc(/C=C/c3cc(O)c(O)cc3O)nc2c1O [SQE 95] was 12.5

====

# System: HeLa-P4 cell
# assay: Viability assay (cytotoxicity, MTT)
# Type: cell-based
# condition.description: 2 days, comparative compound table, read-out: Cytotoxicity IC50
value.type: CC50

get_value(item= COc1cc(/C=C/c2ccc3ccc(C(=O)O)c(O)c3n2)cc(O)c1O [FZ41, reference compound] , readout=CC50) returns > 100 µM
